- Test system: 786-0 renal
- assay_overview: NCI-60 one-dose screen, 48 h (100 = growth as untreated, 0 = no growth, -100 = all killed)
- assay_context: 10 µM unless noted
About 83,000 compounds went through this panel and 20% of them were active in at least one assay; those are over-represented in the sample as a whole.
Known growth of a selection of molecules
# number only, unit % dropped from output

Past entries and their recorded results:
COc1ccc(-c2nc3c(c(-c4ccc(Cl)cc4)nn3-c3ccccc3)c(-c3ccccc3)c2C#N)cc1 ... 108
CCN(CC)CCOc1ccc(Nc2ncc3cc(-c4c(Cl)cccc4Cl)c(=O)n(CCOC)c3n2)cc1 ... 5.35
Cc1ccc2c(c1)sc1nc(-c3c[nH]c4ccccc34)c(Nc3ccccc3)n12 ... 105
C[N+]1=C(/C=C/c2ccccc2Cl)C(C)(C)c2ccccc21 ... 95.9

Value of growth reported for the molecule `CNC(=O)Nc1ccc(-c2ccc3ncnc(Nc4cccc(Cl)c4)c3c2)cc1` is 71.4
